Target: T1, human IL-11 (human, UniProt P20809 22-199)
T1 sequence: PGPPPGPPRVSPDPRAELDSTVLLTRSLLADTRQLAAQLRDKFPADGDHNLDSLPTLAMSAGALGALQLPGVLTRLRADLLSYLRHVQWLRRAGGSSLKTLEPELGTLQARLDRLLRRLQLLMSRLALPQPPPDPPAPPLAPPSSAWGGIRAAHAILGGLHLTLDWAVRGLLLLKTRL
Assay: cell-based or functional assay
Measured RGA Efficacy (%) of individual entries

>  <Binder>
TPP-26293 (antibody, V domains shown) VH: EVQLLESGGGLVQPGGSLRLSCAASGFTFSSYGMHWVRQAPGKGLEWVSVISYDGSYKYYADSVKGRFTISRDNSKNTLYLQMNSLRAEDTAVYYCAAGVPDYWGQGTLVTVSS VL: QSVLTQPPSASGTPGQRVTISCTGSSSNIGAWYDVHWYQQLPGTAPKLLIYSNNERPSGVPDRFSGSKSGTSASLAISGLRSEDEADYYCAAWDDSLNGPVFGGGTKLTVL

>  <Measurement Unit>
%

>  <RGA Efficacy (%)>
73.7

$$$$
>  <Binder>
TPP-26327 (antibody, V domains shown) VH: EVQLLESGGGLVQPGGSLRLSCAASGFTFSSYGMHWVRQAPGKGLEWVSVIRYDGSYKYYADSVKGRFTISRDNSKNTLYLQMNSLRAEDTAVYYCAAGVPDYWGQGTLVTVSS VL: QSVLTQPPSASGTPGQRVTISCTGSSSNIGAGYDVHWYQQLPGTAPKLLIYSNNERPSGVPDRFSGSKSGTSASLAISGLRSEDEADYYCAAWDDSLNGPVFGGGTKLTVL

>  <Measurement Unit>
%

>  <RGA Efficacy (%)>
15

$$$$
>  <Binder>
TPP-26325 (antibody, V domains shown) VH: EVQLLESGGGLVQPGGSLRLSCAASGFTFSWYGMHWVRQAPGKGLEWVSVISYDGSYKYYADSVKGRFTISRDNSKNTLYLQMNSLRAEDTAVYYCAAGVPDYWGQGTLVTVSS VL: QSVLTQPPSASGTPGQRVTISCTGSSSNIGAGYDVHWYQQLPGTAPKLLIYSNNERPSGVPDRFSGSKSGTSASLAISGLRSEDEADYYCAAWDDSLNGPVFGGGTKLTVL

>  <Measurement Unit>
%

>  <RGA Efficacy (%)>
81.4

$$$$
